# target or system: T1, Monkey 4-1BB extracellular region recombinant protein (his-tag) (monkey)
# T1 construct: extracellular domain; also called Monkey4-1BB, his-tag
# test description: ELISA, coated monkey 4-1BB-his 200 ng/well; antibody 0.12 µg/ml
# cutoff 0.4 applies to absorbance at 450 nm; >= gives TRUE, < gives FALSE

{"columns": ["binder", "category label"],
 "data": [
  ["137-39 VHH-hFc recombinant antibody (Fc fusion, VHH fragment inserted into vector pFclG with human IgG1 Fc tag, expressed in HEK293F; Preparation had non-specific bands, purity about 30%; not shown: human IgG1 Fc tag of the eukaryotic expression vector pFclG) QVQLVESGGGLVHVGESLTLSCVISGGSSNLYGIGWYRQAPGQERKLVAVLHNEHTTKYLDSVKGRFFVSGDNAKNTLYLHMNNVKVEDTAVYYCNSASGTLAGTGYFASVGPWGQGTLVTVSS", "FALSE"],
  ["137-12 VHH-hFc recombinant antibody (Fc fusion, VHH fragment inserted into vector pFclG with human IgG1 Fc tag, expressed in HEK293F; not shown: human IgG1 Fc tag of the eukaryotic expression vector pFclG) QVQLVESGGGLVHPGGSLRLSCAASGFTLDDSAIGWFRQAPGKEREGVSCRSRSGYMTKYADSVKGRFTISRYNANNTMYLQMNSLKPEDTAVYYCATTRRGYCSGYETKGVDYWGQGIQVTVSS", "FALSE"],
  ["137-1 VHH-hFc recombinant antibody (Fc fusion, also called CD137-1; not shown: human IgG1 Fc tag of the eukaryotic expression vector pFclG) QVQLVESGGGLVQPGGSLRLSCVASGFVFSTVTMGWGRQVPGKEFEWVSGVSSEGITDYADSVKGRFTISRDNAKNTVYLEMNSLKSEDTAEYYCLIGGRWSFGTWGQGTQVTVSS", "TRUE"],
  ["137-36 VHH-hFc recombinant antibody (Fc fusion, VHH fragment inserted into vector pFclG with human IgG1 Fc tag, expressed in HEK293F; not shown: human IgG1 Fc tag of the eukaryotic expression vector pFclG) QVQLVESGGGLVQTGGSLTLSCVASGRRFEAYTIGWLRQAPGDLREGVGCIFGGTTFTGYDDSVKGRFTISRDTAKNTVYLRMNNLTSEDTATYYCAAEGRPGQIKGQHGCLTPSWYNYKGQGTQVTVSS", "FALSE"]
]}

We now examine a further binder.
# input Say whether 137-7 VHH-hFc recombinant antibody (Fc fusion, VHH fragment inserted into vector pFclG with human IgG1 Fc tag, expressed in HEK293F; also called CD137-7; not shown: human IgG1 Fc tag of the eukaryotic expression vector pFclG) QVQLVESGGGLVQPGGSLRLSCAASGFTLDSYAIAWFRQAPGKEREGVSCITSSGGSTNYADSVKGRFTISRDGAKNTVYLQLNSLKPEDTAIYYCAAFHRATCVILGEYDYWGQGTQVTVSS shows absorbance at 450 nm of 0.4 or more.
# output TRUE
